molecular target: Bcl-2 protein (Homo sapiens, UniProt P10415)
Sequence (P10415 1-205 limits assumed): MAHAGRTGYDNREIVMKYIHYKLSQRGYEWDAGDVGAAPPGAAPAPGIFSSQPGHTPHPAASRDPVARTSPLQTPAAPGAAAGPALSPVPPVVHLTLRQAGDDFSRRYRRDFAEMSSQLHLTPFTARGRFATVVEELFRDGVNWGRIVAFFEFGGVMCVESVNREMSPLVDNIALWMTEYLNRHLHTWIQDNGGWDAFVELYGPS
Measured quantity: pKd
pKd here: minus log base 10 of the concentration, concentration in moles per litre.

I looked up COc1ccc(CCNC(=O)c2sc3c([N+](=O)[O-])cc(C(F)(F)F)cc3[n+]2[O-])cc1OC and its pKd for Bcl-2 protein (Homo sapiens, UniProt P10415) was 4.82
